Where do these numbers come from? They come from ChEMBL document CHEMBL5058577.

# System: U2OS
# Assay text: Multiplex assay against U2OS
# Format: toxicity, cell-based
# Assay conditions: human, 12 h, 1 µM, compound concentration 1 uM, replicate 1
Population Apoptotic (%) below 80% gives NOT MET; Population Apoptotic (%) at or above it gives MET.

Query: Does Br.CS(=O)(=O)Nc1c(O)ccc2c1CCCC2C1=NCCN1 (stereo unspecified) have a reported Population Apoptotic (%) of at least 80%?
Result: NOT MET

Query: Does CC(=O)Nc1cccc2c1c(Sc1ccc(Cl)cc1)c(C)n2CC(=O)O have a reported Population Apoptotic (%) of at least 80%?
Result: NOT MET

Query: Does CCc1cc2cc(NS(=O)(=O)c3ccc(C#N)cc3)ccc2n(CC)c1=O have a reported Population Apoptotic (%) of at least 80%?
Result: MET

Query: Does N#Cc1cc(F)cc(-c2nc(-c3ccc(F)cn3)no2)c1 have a reported Population Apoptotic (%) of at least 80%?
Result: NOT MET

Query: Does CC(C)(C)c1cc(NC(=O)Nc2ccc(-c3cn4c(n3)sc3cc(OCCN5CCOCC5)ccc34)cc2)no1 have a reported Population Apoptotic (%) of at least 80%?
Result: NOT MET

Query: Does Cc1sc2c(c1C)C(c1ccc(Cl)cc1)=N[C@@H](CC(=O)NCCCCCCCCNC(=O)COc1cccc3c1C(=O)N(C1CCC(=O)NC1=O)C3=O)c1nnc(C)n1-2 (stereo partly specified) have a reported Population Apoptotic (%) of at least 80%?
Result: MET

Query: Does O=C(CCCc1ccccc1)Nc1nc2ccccc2c(=O)s1 have a reported Population Apoptotic (%) of at least 80%?
Result: MET

Query: Does CN(C)C(=O)Cn1cc(-c2ccc(-c3cncc4ccccc34)cc2)cn1 have a reported Population Apoptotic (%) of at least 80%?
Result: NOT MET

Query: Does COc1cccc2c1c(NS(=O)(=O)c1ccc(Cl)s1)nn2Cc1cccc(CNC(=O)C(C)(C)O)c1 have a reported Population Apoptotic (%) of at least 80%?
Result: MET

Query: Does CCCCCC(O)/C=C/[C@H]1C(=O)CC(O)C1C/C=C\CCCC(=O)O (stereo partly specified) have a reported Population Apoptotic (%) of at least 80%?
Result: NOT MET

Query: Does N#Cc1c(Oc2cccc(OS(=O)(=O)CCCC(F)(F)F)c2)cccc1C(F)(F)F have a reported Population Apoptotic (%) of at least 80%?
Result: NOT MET

Query: Does Cl.NCCc1ccc(O)c(O)c1 [DOPAMINE HYDROCHLORIDE] have a reported Population Apoptotic (%) of at least 80%?
Result: MET

Query: Does CN[C@@H](C)C(=O)N[C@H](C(=O)N1CCC[C@H]1C(=O)Nc1snnc1-c1ccccc1)C1CCCCC1 have a reported Population Apoptotic (%) of at least 80%?
Result: NOT MET

Query: Does CC[C@@H](C)Nc1nc(C)nc2c(-c3ccc(OC)nc3C)c(C)nn12 have a reported Population Apoptotic (%) of at least 80%?
Result: NOT MET

Query: Does Cc1noc(-c2ccc(-c3ccc(CC(=O)O)cc3)cc2)c1NC(=O)O[C@H](C)c1ccccc1Cl have a reported Population Apoptotic (%) of at least 80%?
Result: MET

Query: Does O=C1[C@H](Cc2ccc(O)cc2)N2C(=O)CCN(C(=O)NCc3ccccc3)[C@H]2CN1Cc1cccc2ccccc12 have a reported Population Apoptotic (%) of at least 80%?
Result: MET
